- targetSystem: T1, HPV16 E7(11-19)-peptide-MHC tetramer complex (human papillomavirus 16 (HPV16); human)
- T1 construct: also called E7(11-19)-specific tetramer; MHC/E7(11-19) peptide tetramer
- methodSummary: flow cytometry, peptide-MHC tetramer staining of TCR-transduced primary human T cells;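 also: normal donor T cells activated with anti-CD3/anti-CD28, then lentivirally transduced with TCRs, with mock-transduced cells as control, co-stained for the transduction marker and CD8, tetramers presented by HLA-A02:01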
observedProperty: % of CD8- (CD4+) cells positive for E7(11-19) tetramer staining (%)
# unit: % | format: bare number

Prompt: // % of CD8- (CD4+) cells positive for E7(11-19) tetramer staining lookup, key: TCR 56 (mouse constant regions) (TCR, V domains shown, Human variable regions on mouse constant regions with added cysteines (Calpha Thr48Cys, Cbeta Ser57Cys); Entries are the full chains without signal peptide) V domain 1: GQNIDQPTEMTATEGAIVQINCTYQTSGFNGLFWYQQHAGEAPTFLSYNVLDGLEEKGRFSSFLSRSKGYSYLLLKELQMKDSASYLCAVRDWGYGGATNKLIFGTGTLLAVQP V domain 2: NAGVMQNPRHLVRRRGQEARLRCSPMKGHSHVYWYRQLPEEGLKFMVYLQKENIIDESGMPKERFSAEFPKEGPSILRIQQVVRGDSAAYFCASSPDESRDSNQPQHFGDGTRLSILE
Completion: 0.13

Prompt: Please report the recorded % of CD8- (CD4+) cells positive for E7(11-19) tetramer staining for TCR 59 (mouse constant regions) (TCR, V domains shown) V domain 1: GQQVMQIPQYQHVQEGEDFTTYCNSSTTLSNIQWYKQRPGGHPVFLIQLVKSGEVKKQKRLTFQFGEAKKNSSLHITATQTTDVGTYFCAPKREYGNKLVFGAGTILRVKS V domain 2: EPEVTQTPSHQVTQMGQEVILRCVPISNHLYFYWYRQILGQKVEFLVSFYNNEISEKSEIFDDQFSVERPDGSNFTLKIRSTKLEDSAMYFCAYSGRASYEQYFGPGTRLTVTE .
Completion: 0.16

Prompt: # input binder: TCR 62 (mouse constant regions) (TCR, V domains shown) V domain 1: AQTVTQSQPEMSVQEAETVTLSCTYDTSENNYYLFWYKQPPSRQMILVIRQEAYKQQNATENRFSVNFQKAAKSFSLKISDSQLGDTAMYFCALYTYKYIFGTGTRLKVLA V domain 2: EAGVAQSPRYKIIEKRQSVAFWCNPISGHATLYWYQQILGQGPKLLIQFQNNGVVDDSQLPKDRFSAERLKGVDSTLKIQPAKLEDSAVYLCASSLDTRGSSYNEQFFGPGTRLTVLE ; wanted: its % of CD8- (CD4+) cells positive for E7(11-19) tetramer staining
Completion: 0.07

Where do these numbers come from? They come from patent US20190321401A1.
